- targetOrTestSystem: Substance-K receptor (Mesocricetus auratus)
- Sequence (P51144 whole entry): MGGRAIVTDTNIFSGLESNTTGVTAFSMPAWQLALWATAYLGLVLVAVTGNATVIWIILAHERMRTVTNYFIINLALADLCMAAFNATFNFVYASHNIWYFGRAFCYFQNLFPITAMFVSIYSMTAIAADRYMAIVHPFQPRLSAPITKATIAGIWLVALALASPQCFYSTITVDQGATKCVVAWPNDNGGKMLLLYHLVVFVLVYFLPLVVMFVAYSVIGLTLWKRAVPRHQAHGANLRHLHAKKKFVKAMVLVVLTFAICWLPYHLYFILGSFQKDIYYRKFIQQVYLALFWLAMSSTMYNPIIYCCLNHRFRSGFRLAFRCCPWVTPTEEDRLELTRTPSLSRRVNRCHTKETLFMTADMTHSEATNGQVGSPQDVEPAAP
- testMethodNotes: Binding affinity towards Tachykinin receptor 2 in hamster urinary bladder using [125I]neurokinin A as radioligand; Value ranges from 4.6-9.0 uM

| molecule | targetOrTestSystem | IC50, µM |
| --- | --- | --- |
| O=C1CCN(Cc2ccccc2)CC1Cc1c[nH]c2ccccc12 (stereo unspecified) | Substance-K receptor (Mesocricetus auratus) | 6.8 |

====

- targetOrTestSystem: Cholecystokinin receptor type A (Rattus norvegicus, UniProt P30551)
- Sequence (P30551 whole entry): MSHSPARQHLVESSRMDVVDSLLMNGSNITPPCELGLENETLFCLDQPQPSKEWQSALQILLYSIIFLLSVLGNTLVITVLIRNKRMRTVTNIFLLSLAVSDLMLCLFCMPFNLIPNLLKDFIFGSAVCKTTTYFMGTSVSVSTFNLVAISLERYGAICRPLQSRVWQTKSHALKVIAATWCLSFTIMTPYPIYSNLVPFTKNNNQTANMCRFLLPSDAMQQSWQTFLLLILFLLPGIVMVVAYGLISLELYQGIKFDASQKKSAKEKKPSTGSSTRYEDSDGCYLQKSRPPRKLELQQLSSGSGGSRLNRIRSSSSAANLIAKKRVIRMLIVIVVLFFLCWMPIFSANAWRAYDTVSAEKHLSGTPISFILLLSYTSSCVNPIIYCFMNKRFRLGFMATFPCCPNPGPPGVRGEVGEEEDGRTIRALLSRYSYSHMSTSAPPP
- testMethodNotes: Binding affinity towards CCK-A receptor in rat pancreas using [125I]Bolton-Hunter CCK-8 as radioligand; Value ranges from 4.7-7.1 uM
- Assay type: tissue-based
pIC50: −log10 of the molar value.

| molecule | pIC50 |
| --- | --- |
| CCOP(=O)(OCC)OC1=CCN(Cc2ccccc2)CC1Cc1cn(C(=O)OC(C)(C)C)c2ccccc12 (stereo unspecified) | 5.26 |

====

- targetOrTestSystem: UniProt:P30098
- Sequence (P30098 whole entry): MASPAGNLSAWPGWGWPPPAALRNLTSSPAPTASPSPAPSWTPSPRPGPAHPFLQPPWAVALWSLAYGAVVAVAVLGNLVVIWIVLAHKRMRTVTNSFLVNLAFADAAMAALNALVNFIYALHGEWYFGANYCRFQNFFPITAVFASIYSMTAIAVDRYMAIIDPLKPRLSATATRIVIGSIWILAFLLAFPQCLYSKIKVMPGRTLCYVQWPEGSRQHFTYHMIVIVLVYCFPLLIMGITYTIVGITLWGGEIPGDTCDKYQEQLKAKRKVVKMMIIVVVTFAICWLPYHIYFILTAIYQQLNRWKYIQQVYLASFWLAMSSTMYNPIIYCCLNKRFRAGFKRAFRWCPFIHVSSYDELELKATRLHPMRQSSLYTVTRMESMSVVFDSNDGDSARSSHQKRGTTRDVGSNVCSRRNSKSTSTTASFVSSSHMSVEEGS
- testMethodNotes: Binding affinity towards Tachykinin receptor 3 in guinea pig cerebral cortex using [3H]senktide as radioligand; Value ranges from 5.8-14u M
- Format: tissue-based
pIC50: −log10 of the molar value.

| compound | pIC50 |
| --- | --- |
| O=C1CCN(Cc2ccccc2)CC1Cc1c[nH]c2ccccc12 (stereo unspecified) | 5.00 |
